Target: Multidrug efflux pump subunit AcrB (Escherichia coli (strain K12))
Sequence (P31224 whole entry): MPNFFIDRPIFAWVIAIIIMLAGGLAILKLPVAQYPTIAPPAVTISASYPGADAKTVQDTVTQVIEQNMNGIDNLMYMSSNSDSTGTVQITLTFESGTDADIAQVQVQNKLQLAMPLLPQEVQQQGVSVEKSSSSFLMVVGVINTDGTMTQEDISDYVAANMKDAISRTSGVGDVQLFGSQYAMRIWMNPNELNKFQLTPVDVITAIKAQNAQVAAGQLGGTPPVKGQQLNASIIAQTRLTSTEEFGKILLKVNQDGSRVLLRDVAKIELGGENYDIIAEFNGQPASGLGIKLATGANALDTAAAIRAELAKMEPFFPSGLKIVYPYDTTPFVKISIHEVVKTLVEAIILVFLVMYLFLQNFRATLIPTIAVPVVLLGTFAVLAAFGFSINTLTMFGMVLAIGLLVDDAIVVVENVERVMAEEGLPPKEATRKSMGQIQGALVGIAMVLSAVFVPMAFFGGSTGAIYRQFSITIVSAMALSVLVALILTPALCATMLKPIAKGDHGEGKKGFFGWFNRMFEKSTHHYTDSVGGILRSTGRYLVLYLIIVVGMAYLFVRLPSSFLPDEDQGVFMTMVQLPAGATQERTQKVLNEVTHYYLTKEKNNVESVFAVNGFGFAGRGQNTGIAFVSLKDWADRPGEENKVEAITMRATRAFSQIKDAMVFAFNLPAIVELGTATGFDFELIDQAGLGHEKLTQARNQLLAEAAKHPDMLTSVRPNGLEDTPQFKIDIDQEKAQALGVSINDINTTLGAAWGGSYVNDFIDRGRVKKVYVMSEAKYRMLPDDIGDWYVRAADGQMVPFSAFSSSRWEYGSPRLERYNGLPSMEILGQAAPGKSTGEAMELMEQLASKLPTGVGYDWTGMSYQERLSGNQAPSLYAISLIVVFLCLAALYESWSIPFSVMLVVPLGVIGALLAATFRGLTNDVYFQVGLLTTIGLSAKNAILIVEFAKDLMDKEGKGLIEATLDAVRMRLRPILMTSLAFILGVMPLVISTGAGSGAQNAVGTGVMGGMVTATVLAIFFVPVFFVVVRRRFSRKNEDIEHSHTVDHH
Assay: Binding affinity to Escherichia coli K-12 multidrug efflux protein AcrB at pH 8.4 by equilibrium dialysis method
READOUT TYPE: Kd (µM)

[
  {
    "COMPOUND": "CC/N=c1\\cc2oc3cc(NCC)c(C)cc3c(-c3ccccc3C(=O)OCC)c-2cc1C.Cl [RHODAMINE 6G HYDROCHLORIDE]",
    "UNIT OF MEASURE": "µM",
    "RECORDED MEASUREMENT": 10.3
  }
]
